Source: patent US10851075B2

# Tested on: SW480 cells
# assay_protocol: MTT cell viability, SW480
# Type: cell-based
# conditions: Homo sapiens; SW480, Colon; MTT at 24 hours; Table 3
assay_metric: pIC50
Bear in mind: pIC50 is minus log10 of a mol/L concentration; give just that figure.

# pIC50 lookup, item CC(=O)c1cc2c(o1)C(=O)c1cc(Cl)ccc1C2=O 6.36

# pIC50 lookup, item O=C(c1ccccc1)c1cc2c(o1)C(=O)c1ccccc1C2=O 5.88

# pIC50 lookup, item O=C(c1ccccc1)c1cc2c(s1)C(=O)c1ccccc1C2=O 5.83

# pIC50 lookup, item CC(=O)c1cc2c(o1)C(=O)c1cc(F)ccc1C2=O 6.12

# pIC50 lookup, item CC(=O)c1cc2c(o1)C(=O)c1ccccc1C2=O 6.49

###

Kindly state IC50 for each of the entries shown.
# Tested on: H1299 cells
# assay_protocol: MTT cell viability, H1299
# Format: cell-based
# conditions: Homo sapiens, NCI-H1299; H1299, Lung; MTT at 24 hours; Table 3; read-out: IC50
Use nM as the unit, but write only the number.

Under H1299 cells: IC50 value of CC(=O)c1cc2c(o1)C(=O)c1ccccc1C2=O [Compound 401] ? 230

Under H1299 cells: IC50 value of O=C(c1ccccc1)c1cc2c(s1)C(=O)c1ccccc1C2=O [Compound 402] ? 1040

Under H1299 cells: IC50 value of CC(=O)c1cc2c(o1)C(=O)c1cc(F)ccc1C2=O [Compound 418] ? 340
